Entry source: patent US20250304644A1

Biological target: T1, human GLP-2R (glucagon-like peptide-2 receptor) (human, UniProt O95838 1-553)
T1 sequence (looked up): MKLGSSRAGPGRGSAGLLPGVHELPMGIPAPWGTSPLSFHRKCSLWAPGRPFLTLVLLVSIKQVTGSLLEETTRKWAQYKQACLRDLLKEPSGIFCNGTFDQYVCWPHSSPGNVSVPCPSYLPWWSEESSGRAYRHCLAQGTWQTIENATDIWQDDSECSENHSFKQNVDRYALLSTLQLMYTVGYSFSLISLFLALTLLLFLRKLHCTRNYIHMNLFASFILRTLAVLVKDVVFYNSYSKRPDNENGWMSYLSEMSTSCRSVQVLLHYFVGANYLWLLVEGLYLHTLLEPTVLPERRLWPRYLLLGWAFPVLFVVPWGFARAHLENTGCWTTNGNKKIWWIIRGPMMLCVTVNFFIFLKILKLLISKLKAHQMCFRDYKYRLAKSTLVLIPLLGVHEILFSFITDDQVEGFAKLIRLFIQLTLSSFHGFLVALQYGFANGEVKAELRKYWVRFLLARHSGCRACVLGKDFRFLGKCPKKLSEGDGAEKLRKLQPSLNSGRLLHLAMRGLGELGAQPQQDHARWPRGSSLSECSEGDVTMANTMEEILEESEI
Test: cell-based or functional assay
*1 amine or outer side, *2 acyl side, *3 side chain or, on linkers, in order; H or OH if unused. Where no end group is shown, it is not given here. Side-chain parts run from the residue outwards. [ ]: non-standard residue; d: D form. The star is where a group is joined. C18 diacid = O=C(O)CCCCCCCCCCCCCCCCC(=O)*; γGlu = O=C(O)[C@H](CCC(=O)[*:2])N[*:1]; AEEA = NCCOCCOCC(=O)O; Aib = CC(C)(N)C(=O)O
Returns one of y or n; y when Efficacy GLP-2R is >= 100.

Below, 3 binders whose answers are already recorded.
| binder | cat |
| --- | --- |
| HADGTFTSDYST[Aib]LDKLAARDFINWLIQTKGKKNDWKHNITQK([AEEA-AEEA-γGlu-C18 diacid])-OH [Compound 27] | n |
| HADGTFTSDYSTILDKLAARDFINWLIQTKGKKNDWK([AEEA-AEEA-γGlu-C18 diacid])HNITQ-OH [Compound 25] | y |
| HXDGTFISDYSTILDNLAARDFINWLIQTKITK (Aib at position 2; K33 acylated with C10 via γGlu linker, K(γGlu-C10); C-terminal amide (-NH2)) [Compound 17] | n |

Here is the next item to consider.
Hi team, for HADGTFTSDYSTILDK([AEEA-AEEA-γGlu-C18 diacid])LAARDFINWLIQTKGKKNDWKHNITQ-OH [Compound 21] , is the recorded Efficacy GLP-2R at or above 100? y
